# System Under Test: T1, 4H797-bH
# T1 chain: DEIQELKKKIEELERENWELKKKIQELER
# Method Notes: two-hybrid library CCNG1;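 note: natural log of median RNA to DNA barcode read ratio; higher means stronger binding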
This listing pairs binders with measured interaction score.
// no unit, no text: just the number

Please review the entries below; each comes with its answer.
>  <Binder>
DEIQELKKENEELKREIWELKKKIQELER [4H717-bH]

>  <interaction score>
-1.17

$$$$
>  <Binder>
DEIQELEKEIEELKREIWELEKKNQELKR [4H72-bH]

>  <interaction score>
0

$$$$
>  <Binder>
DENQELKKKIEELERKIWELEKENQELKR [4H1828-bH]

>  <interaction score>
0.474

$$$$

(Q) Give interaction score for the following binder: DEIQELKKENEELERKIWELKKENQELER [4H683-bH]
(A) -0.161

(Q) Name the recorded interaction score of the item DENQELEKKIEELERKIWELKKKNQELKR [4H1328-bH] in your answer.
(A) 0.552

(Q) Name the recorded interaction score of the item DEIQELKKEIEELKRENWELKKKNQELER [4H607-bH] in your answer.
(A) -1.49

(Q) Tell me measured interaction score for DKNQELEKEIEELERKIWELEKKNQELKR [4H3112-bH] please.
(A) -0.951
